Tested on: HepG2
TEST_NAME: Cytotoxicity against human HepG2 cells after 24 hrs in presence of glucose by MTT assay
Format: cell-based
EXPERIMENTAL_CONTEXT: hepg2, 24 h
MEASUREMENT_NAME: Activity (µM)
Write down the numeric answer in µM and omit the unit.

I'm curious: which Activity was measured for Cc1c(-c2ccc(N3CC[C@@H](F)C3)cc2)[nH]c2cc(F)cc(F)c2c1=O tested on HepG2?
150.6

I'm curious: which Activity was measured for Cc1c(-c2ccc(-n3cccc3)cc2)[nH]c2cc(F)cc(F)c2c1=O tested on HepG2?
141

I'm curious: which Activity was measured for Cc1c(-c2ccc(N3CCC[C@H](C)C3)cc2)[nH]c2cc(F)cc(F)c2c1=O tested on HepG2?
85.54

I'm curious: which Activity was measured for Cc1c(-c2ccc(N3CCC(F)CC3)cc2)[nH]c2cc(F)cc(F)c2c1=O tested on HepG2?
102.2

I'm curious: which Activity was measured for Cc1c(-c2ccc(N3CCCC(F)C3)cc2)[nH]c2cc(F)cc(F)c2c1=O (centres undefined) tested on HepG2?
188.1
